Protocol Text: Blood level screening after oral dose
Format: in vivo, Sprague-Dawley rats
Assay Context: rat, oral gavage 10 mg/kg, 1 hr
Assay Endpoint: Plasma Levels (μM) 1 hr (µM)

Examples with answers:
* CC(C)[C@H](NC(=O)CN1C(=O)N[C@H](Cc2ccc(O)cc2)C1=O)C(=O)c1nnc(Cc2ccc3c(c2)OCO3)o1 | 0.9
* Cc1cccc(Cc2nnc(C(=O)[C@@H](NC(=O)CN3C(=O)NC(c4ccc(N(C)C)cc4)C3=O)C(C)C)o2)c1 (stereo partly shown) | 1.11
* Cc1cccc(Cc2nnc(C(=O)[C@@H](NC(=O)CN3C(=O)N[C@@H](C(C)C)C3=O)C(C)C)o2)c1 | 1.12
* Cc1cccc(Cc2nnc(C(=O)[C@@H](NC(=O)CN3C(=O)N[C@@H](CC(C)C)C3=O)C(C)C)o2)c1 | 1.276
* Cc1cccc(Cc2nnc(C(=O)[C@@H](NC(=O)CN3C(=O)NC(C)(c4ccccn4)C3=O)C(C)C)o2)c1 (stereo partly shown) | 0.77

A: Cc1cccc(Cc2nnc(C(=O)[C@@H](NC(=O)Cn3c(=O)ncc4ccccc43)C(C)C)o2)c1
B: CC(C)[C@H](NC(=O)CN1C(=O)NC(c2ccccc2)(c2ccccc2)C1=O)C(=O)c1nnc(Cc2ccc3c(c2)OCO3)o1
C: Cc1cccc(Cc2nnc(C(=O)[C@@H](NC(=O)CN3C(=O)N[C@H](Cc4c[nH]c5ccccc45)C3=O)C(C)C)o2)c1
Q. Reorder: Plasma Levels (μM) 1 hr, max to min. Labels, requested order.
A. C, A, B
(C: 2.801 µM, A: 1.16 µM, B: 0.597 µM)

P: Cc1cccc(Cc2nnc(C(=O)[C@@H](NC(=O)CN3C(=O)N[C@H](CC(C)C)C3=O)C(C)C)o2)c1
Q: Cc1cccc(Cc2nnc(C(=O)C(NC(=O)Cn3c(=O)c(N)cc4ccccc43)C(C)C)o2)c1 (racemic)
Q. Could you tell me which of P and Q has the lower Plasma Levels (μM) 1 hr reading? Output the label that corresponds to your choice.
A. Q

Cited source for all entries: patent US6656911B2
